- experimental-target: EcDHPS (dihydropteroate synthase) (Escherichia coli, UniProt P0AC13)
- Sequence (P0AC13 whole entry): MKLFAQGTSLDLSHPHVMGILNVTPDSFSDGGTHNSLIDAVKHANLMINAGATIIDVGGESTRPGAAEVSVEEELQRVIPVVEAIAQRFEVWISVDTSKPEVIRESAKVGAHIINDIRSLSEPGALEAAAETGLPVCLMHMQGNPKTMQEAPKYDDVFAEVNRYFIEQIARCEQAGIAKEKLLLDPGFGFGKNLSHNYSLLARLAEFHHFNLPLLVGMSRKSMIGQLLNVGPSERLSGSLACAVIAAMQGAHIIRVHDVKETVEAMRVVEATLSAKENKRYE
assay-readout: Ki (µM)

In [3]: df
Out[3]:
                     smiles_string  recorded_value
0  Cc1cc(NS(=O)(=O)c2ccc(N)cc2)no1            5.15

###

- experimental-target: Sul3 (Escherichia coli, UniProt C0HMD9, F177G)
- Sequence (C0HMD9 1-242 F177G): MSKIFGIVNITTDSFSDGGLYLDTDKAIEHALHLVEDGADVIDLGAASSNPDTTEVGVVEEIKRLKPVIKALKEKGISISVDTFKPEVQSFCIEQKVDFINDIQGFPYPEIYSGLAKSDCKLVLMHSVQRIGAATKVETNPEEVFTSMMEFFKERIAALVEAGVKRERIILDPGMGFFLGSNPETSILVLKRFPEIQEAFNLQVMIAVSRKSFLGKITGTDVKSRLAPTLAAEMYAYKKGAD
- experimental-details: coupled malachite green DHPS activity assay, competition with pABA
- test-parameters: read-out: Sulfa (SMX) / Ki
pKi: −log10 of the molar value.
assay-readout: pKi

                     smiles_string  recorded_value
0  Cc1cc(NS(=O)(=O)c2ccc(N)cc2)no1            5.38
